# system: T1, TMEW19 (spTMEFF2(230-320)G3S-H6) (human, UniProt Q9UIK5 230-320)
# T1 construct: Residues 230-320 of human TMEFF2 with G3S and 6xHis tag, all in the entry; also called TMEFF2 membrane proximal region; MP
# T1 sequence: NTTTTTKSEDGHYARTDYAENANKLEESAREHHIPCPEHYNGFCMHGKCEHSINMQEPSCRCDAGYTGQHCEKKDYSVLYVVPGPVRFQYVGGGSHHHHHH
# experimental protocol: ProteOn SPR, mAb captured on anti-human Fc, TMEFF2 as analyte
measured quantity: koff (s⁻¹)

| binder | readout value |
| --- | --- |
| TMEB674 (antibody, human IgG4 S228P, kappa, F234A L235A, V domains shown, IgG4 PAA anti-TMEFF2; also called TMEH410/TMEL126) VH: VQLLESGGGLVQPPGGSLRLSCAASGFTFSSYSMSWVRQAPGKGLEWVSVISGGGSFTSYADSVKGRFTISRDNSNNTLYLQMSSLRAEDTAFYYCARMPLNSPHDCWGQGTLVTVSS VL: AIQMTQSPSSLSASVGDRVTITCRASQGIRNDLGWYQQKPGKAPKLLIYAASSLQSGVPSRFSGSGSGTDFTLTISSLQPEDFATYYCLQDYNYSLTFGGGTKVEIRR | 0.000175 |
| TMEB675 (antibody, human IgG4 S228P, kappa, F234A L235A, V domains shown, IgG4 PAA anti-TMEFF2; also called TMEH411/TMEL127) VH: EVQLLESGGGLVQRGGSLRPSCAASGFTFSSYSMSWVRQAPGKGLEWVSVISGSGGFTDYADSVKGRFTISRDNSKNTLYLHMNSLRAEDTAVYYCARMPLNSPHDYWGQGTLVTVSS VL: AIQMTQSPSSLSASVGDRVTITCRASQGIRNDLGWYQQKPGKAPKLLIYAASSLQSGVPSRFSGSGSGTDFTLTISSLQPEDFATYYCLQDYNYALTFGGGTKVEIKR | 0.000158 |
| TMEB570 (antibody, human IgG4 S228P, kappa, F234A L235A, V domains shown, IgG4 PAA anti-TMEFF2; also called TMEH396/TMEL112) VH: QVQLVQSGAEVKKPGSSVKVSCKASGGTFSSYYISWVRQAPGQGLEWMGGIIPISGRANYAQKFQGRVTITADESTSTAYMELSSLRSEDTAVYYCARDGYSSGRSTTYAFDYWGQGTLVTVSS VL: EIVLTQSPGTLSLSPGERATLSCRASQSVSTYYLAWYQQKPGQAPRLLIYGASYRATGIPDRFSGSGSGTDFTLTISRLEPEDFAVYYCQQYGHSPITFGQGTKVEIKR | 4.67e-05 |
| TMEB565 (antibody, human IgG4 S228P, kappa, F234A L235A, V domains shown, IgG4 PAA anti-TMEFF2; also called TMEH396/TMEL111) VH: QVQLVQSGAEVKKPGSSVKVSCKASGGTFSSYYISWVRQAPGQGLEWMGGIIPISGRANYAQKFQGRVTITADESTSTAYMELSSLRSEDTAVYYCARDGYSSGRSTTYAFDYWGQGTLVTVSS VL: EIVLTQSPGTLSLSPGERATLSCRASQSVATYYLAWYQQKPGQAPRLLIYGASSRATGIPDRFSGSGSGTDFTLTISRLEPEDFAVYYCQQYGYNPITFGQGTKVEIKR | 6.39e-06 |
